# assay_name: MRT in Sprague-Dawley rat at 2 mg/kg, iv measured upto 24 hrs by LC-MS/MS analysis
# Type: ADME, organism-based
# experimental_setup: in vivo
value_type: MRT

chemical_structure: CN1CCN(c2cc(F)c(-c3ccc(C(=O)N(C)C)cc3)cc2Nc2ncnc(Cl)c2N)CC1
value_type: MRT
reading: 1.18 h

###

# assay_name: Half life in Sprague-Dawley rat at 10 mg/kg, po measured upto 24 hrs by LC-MS/MS analysis
# Assay type: ADME, organism-based
# experimental_setup: in vivo

chemical_structure: CN1CCN(c2cc(F)c(-c3ccc(C(=O)N(C)C)cc3)cc2Nc2ncnc(Cl)c2N)CC1
half-life (h): 4.94
